The origin of these recorded values is patent EP4772535A1.

Top (MFI) overview
- experimental system: T1, ROR1 naturally expressed on human tumor cell lines (A549, Jeko-1, SW620, PA-1) (human, UniProt Q01973 30-937)
- T1 construct: whole, on cells; also called cells expressing ROR1
- T1 sequence (Q01973 30-937): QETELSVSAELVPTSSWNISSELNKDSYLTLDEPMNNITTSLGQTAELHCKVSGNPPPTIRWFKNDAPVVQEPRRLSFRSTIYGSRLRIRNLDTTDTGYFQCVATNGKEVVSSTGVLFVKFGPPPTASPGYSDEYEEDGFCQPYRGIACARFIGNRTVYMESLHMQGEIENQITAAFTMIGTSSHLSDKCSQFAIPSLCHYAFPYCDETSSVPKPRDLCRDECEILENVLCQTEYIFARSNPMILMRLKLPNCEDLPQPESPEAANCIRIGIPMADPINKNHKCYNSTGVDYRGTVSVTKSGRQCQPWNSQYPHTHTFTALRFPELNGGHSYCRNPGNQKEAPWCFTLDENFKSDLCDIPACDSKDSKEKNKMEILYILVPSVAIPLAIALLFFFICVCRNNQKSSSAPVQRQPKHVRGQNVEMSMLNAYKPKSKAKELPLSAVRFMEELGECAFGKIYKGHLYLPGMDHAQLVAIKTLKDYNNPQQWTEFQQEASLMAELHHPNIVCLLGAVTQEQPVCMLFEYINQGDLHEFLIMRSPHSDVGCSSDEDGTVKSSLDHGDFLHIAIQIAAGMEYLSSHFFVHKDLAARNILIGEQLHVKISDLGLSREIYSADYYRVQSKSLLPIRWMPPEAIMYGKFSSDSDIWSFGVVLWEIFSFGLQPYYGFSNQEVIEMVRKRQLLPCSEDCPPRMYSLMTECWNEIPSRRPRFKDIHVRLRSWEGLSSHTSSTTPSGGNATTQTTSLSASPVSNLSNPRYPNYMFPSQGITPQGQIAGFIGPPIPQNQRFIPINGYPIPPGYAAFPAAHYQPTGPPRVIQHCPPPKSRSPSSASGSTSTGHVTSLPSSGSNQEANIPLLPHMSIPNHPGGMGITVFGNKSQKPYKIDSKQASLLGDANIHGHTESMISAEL
- assay text: FACS on SW620 cells naturally expressing ROR1
I only need the number, in MFI, no unit after it.

hz29H5D8-3.2 (antibody, human IgG1, kappa, V domains shown, Humanized, human IgG1/kappa) VH: QVQLVQSGAEVKKPGSSVKVSCKASGYTFTNYGISWVRQAPGQGLEWMGEIYPRSVNTYYSAKFKGRVTITADKSTSTAYMELSSLRSEDTAVYYCARHYYGSSLDYWGQGTLVTVSS VL: DIQMTQSPSSLSASVGDRVTITCITSSDIEDDMNWYQQKPGKAPKLLISEGNSLRPGVPSRFSSSGYGTDFTFTISSLQPEDIATYYCLQSDNIFTFGQGTKVEIKR :: 30700
hz29H5D8-3.1 (antibody, human IgG1, kappa, V domains shown, Humanized, human IgG1/kappa) VH: QVQLVQSGAEVKKPGSSVKVSCKASGYTFTNYGISWVRQAPGQGLEWMGEIYPRSVNTYYAQKFQGRVTITADKSTSTAYMELSSLRSEDTAVYYCARHYYGSSLDYWGQGTLVTVSS VL: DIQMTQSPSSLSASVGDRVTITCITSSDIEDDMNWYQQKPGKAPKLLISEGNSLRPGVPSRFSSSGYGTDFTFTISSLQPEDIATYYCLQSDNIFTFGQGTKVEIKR :: 30700
hz29H5D8-2.1 (antibody, human IgG1, kappa, V domains shown, Humanized, human IgG1/kappa) VH: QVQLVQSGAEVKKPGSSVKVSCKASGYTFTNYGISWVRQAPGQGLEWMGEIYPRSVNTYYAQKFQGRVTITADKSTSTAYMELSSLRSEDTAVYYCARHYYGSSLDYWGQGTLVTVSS VL: DIQMTQSPSSLSASVGDRVTITCITSSDIEDDMNWYQQKPGKAPKLLIYEGNSLRPGVPSRFSSSGYGTDFTFTISSLQPEDIATYYCLQSDNIFTFGQGTKVEIKR :: 28600

Note: attention shifts to another entry.
Request: What value of Top (MFI) has been recorded for this entry: UC-961 (antibody, V domains shown) VH: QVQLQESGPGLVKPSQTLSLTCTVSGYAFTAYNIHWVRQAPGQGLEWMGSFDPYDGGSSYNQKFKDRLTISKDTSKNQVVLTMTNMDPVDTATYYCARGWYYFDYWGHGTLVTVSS VL: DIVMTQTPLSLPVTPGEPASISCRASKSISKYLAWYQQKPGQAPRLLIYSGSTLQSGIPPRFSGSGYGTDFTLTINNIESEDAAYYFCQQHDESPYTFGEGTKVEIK
Result: 26500
